assay_notes: Half life in Sprague-Dawley rat at 2 mg/kg, iv measured upto 48 hrs by LC-MS/MS analysis
Format: ADME, organism-based
study_conditions: in vivo
measured_endpoint: half-life
Mention the unit after the number when you answer.

Recorded half-life (molecule COc1ccc(-c2ncc(C(=O)NCCCCCCC(=O)NO)s2)c(OC)c1 ): 6.2 h

====

assay_notes: MRT(0 to t) in Sprague-Dawley rat at 2 mg/kg, iv measured upto 48 hrs by LC-MS/MS analysis
Format: ADME, organism-based
study_conditions: in vivo
measured_endpoint: MRT last at 48 h (h)
Give bare numbers, in h.

What the record says about COc1ccc(-c2ncc(C(=O)NCCCCCCC(=O)NO)s2)c(OC)c1 : MRT last at 48 h is 1.1

====

test_system: Histone deacetylase 1 (Homo sapiens, UniProt Q13547)
Sequence (Q13547 whole entry): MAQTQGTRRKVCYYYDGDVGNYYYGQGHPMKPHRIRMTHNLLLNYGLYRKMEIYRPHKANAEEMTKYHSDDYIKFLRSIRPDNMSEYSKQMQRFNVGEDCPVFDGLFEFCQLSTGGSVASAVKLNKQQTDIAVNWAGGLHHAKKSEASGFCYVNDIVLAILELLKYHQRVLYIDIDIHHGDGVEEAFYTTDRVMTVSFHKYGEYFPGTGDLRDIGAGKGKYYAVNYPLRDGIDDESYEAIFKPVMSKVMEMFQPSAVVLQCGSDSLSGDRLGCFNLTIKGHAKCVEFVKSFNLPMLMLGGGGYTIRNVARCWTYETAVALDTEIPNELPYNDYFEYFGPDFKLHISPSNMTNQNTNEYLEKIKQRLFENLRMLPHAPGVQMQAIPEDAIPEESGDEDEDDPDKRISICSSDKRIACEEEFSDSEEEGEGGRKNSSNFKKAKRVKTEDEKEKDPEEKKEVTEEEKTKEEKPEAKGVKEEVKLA
assay_notes: Inhibition of recombinant human HDAC1 expressed in baculovirus expression system using Ac-Leu-Gly-Lys (Ac)-AMC as substrate preincubated for 5 mins followed by substrate addition and measured after 30 mins by fluorescence microtiter plate reader assay
measured_endpoint: IC50
Your reply should be a number followed by the unit it is expressed in.

Recorded IC50, per entry:
COc1ccccc1-c1ncc(C(=O)NCCCCCCC(=O)NO)s1 : 5.13 µM
COc1cccc(-c2ncc(/C=C/C(=O)Nc3ccccc3N)s2)c1 : 13.5 µM
CC(C)(C)OC(=O)Nc1ccc(-c2ncc(C(=O)NCCCCCCC(=O)NO)s2)cc1 : 9.32 µM
CC(C)(C)OC(=O)Nc1ccc(-c2cc(C(=O)NCCCCCCC(=O)NO)no2)cc1 : 0.26 µM
COc1ccc(-c2ncc(C(=O)NCCCCCCC(=O)NO)[nH]2)c(OC)c1 : 4.66 µM

Please supply IC50 for each of the following items, keeping them in order.
1. COc1ccc(-c2ncc(/C=C/C(=O)NO)s2)cc1
2. COc1ccc(-c2ncc(/C=C/C(=O)NO)s2)c(OC)c1OC
3. COc1cccc(-c2ncc(C(=O)NCCCCCCC(=O)NO)s2)c1
4. COc1cc(-c2ncc(/C=C/C(=O)Nc3ccccc3N)s2)cc(OC)c1OC

Result:
4.34 µM
5.03 µM
3.93 µM
9.79 µM

Parameters: items (list). Returns: IC50 for each item.
1. COc1ccc(-c2ncc(C(=O)NCCCCCC(=O)NO)s2)c(OC)c1
2. COc1ccc(-c2ncc(C(=O)NCCCCCCC(=O)NO)s2)c(OC)c1

Result:
1: 11.2 µM; 2: 3.19 µM

Okay, here is my list. What is IC50 for each of these?
1. COc1ccc(-c2ncc(/C=C/C(=O)Nc3ccccc3N)s2)cc1OC
2. COc1cc(-c2ncc(/C=C/C(=O)NO)s2)cc(OC)c1OC

Result:
["10.4 µM", "3.21 µM"]

====

Tested on: MCF7
assay_notes: cells
Assay type: functional, cell-based
study_conditions: Homo sapiens, MCF7, 48 h
Description: Antiproliferative activity against human MCF7 cells assessed as inhibition of cell proliferation measured after 48 hrs by MTT assay
measured_endpoint: IC50 (nM)
One number for each entry, in nM.

// worked examples, IC50 included
COc1cc(-c2ncc(/C=C/C(=O)Nc3ccccc3N)s2)cc(OC)c1OC : 2540
CC(C)(C)OC(=O)Nc1ccc(-c2cc(C(=O)NCCCCCCC(=O)NO)no2)cc1 : 2820
COc1ccccc1-c1ncc(C(=O)NCCCCCCC(=O)NO)s1 : 1930
COc1ccc(-c2ncc(C(=O)NCCCCCCC(=O)NO)s2)c(OC)c1 : 910
COc1ccc(-c2ncc(/C=C/C(=O)NO)s2)c(OC)c1OC : 4780

// each molecule listed below needs its IC50
1. COc1cccc(-c2ncc(/C=C/C(=O)Nc3ccccc3N)s2)c1
2. COc1ccc(-c2ncc(/C=C/C(=O)NO)s2)cc1
3. COc1ccc(-c2ncc(C(=O)NCCCCCC(=O)NO)s2)c(OC)c1
4. COc1ccc(-c2ncc(/C=C/C(=O)Nc3ccccc3N)s2)cc1OC
5. COc1cccc(-c2ncc(C(=O)NCCCCCCC(=O)NO)s2)c1

Result:
[6050, 5360, 2810, 3050, 1900]

Answer for every listed entry: what is its IC50? The entries follow.
1. COc1cc(-c2ncc(/C=C/C(=O)NO)s2)cc(OC)c1OC
2. COc1ccc(-c2ncc(C(=O)NCCCCCCC(=O)NO)[nH]2)c(OC)c1

Result:
1. 1300
2. 2680

====

Give IC50 for every item shown.
Test system: B16-F10
assay_notes: cells
Type: functional, cell-based
study_conditions: Mus musculus, B16-F10, 48 h
Description: Antiproliferative activity against mouse B16-F10 cells assessed as inhibition of cell proliferation measured after 48 hrs by MTT assay
Numbers only, in µM.

For orientation, consider the following solved cases.
COc1cccc(-c2ncc(C(=O)NCCCCCCC(=O)NO)s2)c1 : 3.52
COc1ccc(-c2ncc(C(=O)NCCCCCCC(=O)NO)[nH]2)c(OC)c1 : 5.26
COc1ccc(-c2ncc(C(=O)NCCCCCCC(=O)NO)s2)c(OC)c1 : 2.31
COc1cc(-c2ncc(/C=C/C(=O)NO)s2)cc(OC)c1OC : 5.09

Below are 2 compounds. Give each one its IC50.
1. COc1ccc(-c2ncc(C(=O)NCCCCCC(=O)NO)s2)c(OC)c1
2. CC(C)(C)OC(=O)Nc1ccc(-c2cc(C(=O)NCCCCCCC(=O)NO)no2)cc1

Result:
2.94
9.41

Provide IC50 values for the following items, in order.
1. COc1ccc(-c2ncc(/C=C/C(=O)Nc3ccccc3N)s2)cc1OC
2. COc1cc(-c2ncc(/C=C/C(=O)Nc3ccccc3N)s2)cc(OC)c1OC

Result:
1: 6.37; 2: 7.62

====

assay_notes: AUC(0 to t) in Sprague-Dawley rat at 10 mg/kg, po measured upto 48 hrs by LC-MS/MS analysis
Assay type: ADME, organism-based
Parameters: route oral, dose 10 mg/kg, time <=48
study_conditions: in vivo
measured_endpoint: AUC(0-t) at 48 h (ng·h/mL)
Give bare numbers, in ng·h/mL.

Lookup result for COc1ccc(-c2ncc(C(=O)NCCCCCCC(=O)NO)s2)c(OC)c1 ; measured AUC(0-t) at 48 h: 134

====

test_system: Histone deacetylase 3 (Homo sapiens)
Sequence (O15379 whole entry): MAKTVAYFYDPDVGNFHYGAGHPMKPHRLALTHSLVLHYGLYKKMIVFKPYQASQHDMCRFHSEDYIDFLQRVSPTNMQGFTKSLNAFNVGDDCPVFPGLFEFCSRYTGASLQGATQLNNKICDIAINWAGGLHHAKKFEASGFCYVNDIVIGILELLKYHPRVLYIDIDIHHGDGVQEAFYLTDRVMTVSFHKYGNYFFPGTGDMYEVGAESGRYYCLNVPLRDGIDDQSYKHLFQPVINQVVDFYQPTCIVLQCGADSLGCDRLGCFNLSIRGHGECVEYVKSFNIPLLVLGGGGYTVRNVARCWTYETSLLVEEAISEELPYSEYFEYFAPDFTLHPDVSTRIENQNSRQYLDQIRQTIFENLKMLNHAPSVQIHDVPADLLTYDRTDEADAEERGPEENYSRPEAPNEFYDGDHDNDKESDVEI
assay_notes: Inhibition of recombinant human His-tagged HDAC3 expressed in baculovirus insect cells using Ac-Leu-Gly-Lys (Ac)-AMC as substrate preincubated for 5 mins followed by substrate addition and measured after 30 mins by fluorescence microtiter plate reader assay
measured_endpoint: IC50 (µM)
Give bare numbers, in µM.

COc1ccc(-c2ncc(C(=O)NCCCCCCC(=O)NO)[nH]2)c(OC)c1 : 7.12

Now for a further compound.
The compound O=C(CCCCCCNC(=O)c1cnc(-c2ccc(OC(F)(F)F)cc2)s1)NO showed IC50 equal to 8.07

====

test_system: UniProt:Q9UBN7
Sequence (Q9UBN7 whole entry): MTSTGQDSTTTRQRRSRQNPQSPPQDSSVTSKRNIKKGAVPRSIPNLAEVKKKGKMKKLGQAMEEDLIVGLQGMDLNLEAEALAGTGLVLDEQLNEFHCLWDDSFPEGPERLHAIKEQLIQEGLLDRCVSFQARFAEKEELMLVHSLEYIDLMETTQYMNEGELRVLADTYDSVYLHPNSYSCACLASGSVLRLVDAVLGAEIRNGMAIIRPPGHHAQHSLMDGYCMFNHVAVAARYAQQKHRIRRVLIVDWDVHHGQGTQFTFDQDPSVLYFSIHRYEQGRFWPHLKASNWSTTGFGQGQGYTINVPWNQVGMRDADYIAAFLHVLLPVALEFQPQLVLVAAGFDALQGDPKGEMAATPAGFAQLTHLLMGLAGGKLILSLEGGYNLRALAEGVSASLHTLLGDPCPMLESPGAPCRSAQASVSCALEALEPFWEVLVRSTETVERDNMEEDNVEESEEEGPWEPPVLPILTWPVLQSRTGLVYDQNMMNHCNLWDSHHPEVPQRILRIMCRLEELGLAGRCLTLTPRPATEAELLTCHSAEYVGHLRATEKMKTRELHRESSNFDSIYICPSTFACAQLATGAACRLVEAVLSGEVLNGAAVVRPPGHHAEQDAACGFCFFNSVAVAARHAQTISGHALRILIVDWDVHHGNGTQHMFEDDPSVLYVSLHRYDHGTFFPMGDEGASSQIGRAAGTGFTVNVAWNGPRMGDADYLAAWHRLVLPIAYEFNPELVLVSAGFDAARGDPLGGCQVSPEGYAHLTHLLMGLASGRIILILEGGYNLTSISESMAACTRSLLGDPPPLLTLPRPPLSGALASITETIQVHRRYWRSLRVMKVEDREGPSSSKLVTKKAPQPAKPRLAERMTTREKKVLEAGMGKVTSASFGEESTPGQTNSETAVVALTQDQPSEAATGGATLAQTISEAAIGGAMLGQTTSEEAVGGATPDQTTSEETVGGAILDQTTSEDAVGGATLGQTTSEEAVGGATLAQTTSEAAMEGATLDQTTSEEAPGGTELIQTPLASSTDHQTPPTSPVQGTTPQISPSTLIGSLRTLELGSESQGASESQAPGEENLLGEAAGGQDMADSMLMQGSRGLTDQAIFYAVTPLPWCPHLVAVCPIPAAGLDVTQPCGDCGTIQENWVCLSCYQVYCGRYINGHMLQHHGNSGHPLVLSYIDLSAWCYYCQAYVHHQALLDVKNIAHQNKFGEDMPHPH
assay_notes: Inhibition of recombinant human N-terminal GST tagged HDAC6 expressed in baculovirus infected Sf9 insect cells using Ac-Leu-Gly-Lys (Ac)-AMC as substrate preincubated for 5 mins followed by substrate addition and measured after 30 mins by fluorescence microtiter plate reader assay
Binning of IC50 into classes: L = under 0.6 µM, M = from 0.6 µM up to 0.9 µM, H = 0.9 µM and over

Query: Band of COc1cccc(-c2ncc(/C=C/C(=O)Nc3ccccc3N)s2)c1 ?
Result: H
